- system under test: Mitogen-activated protein kinase kinase kinase 3 (Homo sapiens) (UniProt Q99759)
- Sequence (Q99759 whole entry, looked up): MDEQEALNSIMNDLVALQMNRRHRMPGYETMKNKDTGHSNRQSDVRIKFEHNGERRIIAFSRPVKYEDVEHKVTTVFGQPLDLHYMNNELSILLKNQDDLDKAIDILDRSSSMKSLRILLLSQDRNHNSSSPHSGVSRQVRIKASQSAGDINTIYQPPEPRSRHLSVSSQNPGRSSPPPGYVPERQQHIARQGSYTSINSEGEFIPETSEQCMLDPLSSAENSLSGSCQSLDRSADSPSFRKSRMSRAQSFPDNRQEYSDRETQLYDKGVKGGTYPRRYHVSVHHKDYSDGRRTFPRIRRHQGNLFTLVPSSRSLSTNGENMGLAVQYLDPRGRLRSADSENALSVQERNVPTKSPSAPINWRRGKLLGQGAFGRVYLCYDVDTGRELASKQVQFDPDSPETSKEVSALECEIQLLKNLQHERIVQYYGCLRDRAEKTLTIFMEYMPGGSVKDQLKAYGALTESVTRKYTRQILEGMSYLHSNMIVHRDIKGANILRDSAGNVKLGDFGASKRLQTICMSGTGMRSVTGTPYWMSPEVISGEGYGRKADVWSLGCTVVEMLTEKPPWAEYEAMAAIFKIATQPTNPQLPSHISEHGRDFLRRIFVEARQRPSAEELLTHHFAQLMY
- assay name: MEKK3 PB1-MEK5 interaction blockers – biochemical, bead multiplex flow cytometry, wildtype, dose response (AID 1896)
- cond: bead-based multiplex flow cytometry, MEK5-MEKK3 PB1 binding
The source made the active and inactive calls. The rule behind the calls is not given here.
Your response should consist of one outcome taken from TRUE = active, FALSE = inactive

Illustrative cases are given below, each with its answer.
compound: COCc1c(C#N)c(NCCc2ccccc2)nc(C)c1[N+](=O)[O-]
system under test: Mitogen-activated protein kinase kinase kinase 3 (Homo sapiens) (UniProt Q99759)
label: FALSE

compound: CN(C)CCCn1c(SCC(=O)Nc2nc(-c3cccc(Br)c3)cs2)nc2ccccc2c1=O
system under test: Mitogen-activated protein kinase kinase kinase 3 (Homo sapiens) (UniProt Q99759)
label: FALSE

compound: COc1ccc(Cn2c(SCc3ccc(C)cc3)nc3cc(OC)c(OC)cc3c2=N)cc1Cl
system under test: Mitogen-activated protein kinase kinase kinase 3 (Homo sapiens) (UniProt Q99759)
label: FALSE

compound: CCCCCCCCCC[N+](C)(C)CC/C=C1/c2ccccc2Sc2ccc(Cl)cc21
system under test: Mitogen-activated protein kinase kinase kinase 3 (Homo sapiens) (UniProt Q99759)
label: FALSE

compound: C#CCOCCOCCOCCNc1nc(N2CCN(C(=O)[C@H]([C@@H](C)CC)n3cc([C@@H](N)CC(C)C)nn3)CC2)nc(N2CCN(C(=O)[C@H](Cc3cc4ccccc4[nH]3)n3cc([C@@H](N)CC(C)C)nn3)CC2)n1
system under test: Mitogen-activated protein kinase kinase kinase 3 (Homo sapiens) (UniProt Q99759)
label: FALSE

compound: C=CC#CC[N+]1(CC#Cc2ccccc2)CCOCC1
system under test: Mitogen-activated protein kinase kinase kinase 3 (Homo sapiens) (UniProt Q99759)
label: FALSE

compound: CCCCCc1cc(=O)oc2c(C(CCN3CCCC(C)C3)c3ccc4c(c3)OCO4)c(OC)cc(OC)c12 (stereo unspecified)
system under test: Mitogen-activated protein kinase kinase kinase 3 (Homo sapiens) (UniProt Q99759)
label: FALSE

compound: CCCN1C(=O)/C(=C\C=C2/Sc3ccccc3N2CC)SC1=S
system under test: Mitogen-activated protein kinase kinase kinase 3 (Homo sapiens) (UniProt Q99759)
label: FALSE

compound: COc1ccc(/C=N/Nc2cc(C)nc3ccc(Br)cc23)cc1
system under test: Mitogen-activated protein kinase kinase kinase 3 (Homo sapiens) (UniProt Q99759)
label: FALSE

compound: CNC[C@H](CC1CCCCC1)NC[C@H](Cc1ccccc1)NCCC12CC3CC(CC(C3)C1)C2
system under test: Mitogen-activated protein kinase kinase kinase 3 (Homo sapiens) (UniProt Q99759)
label: FALSE

// query What outcome does the record of this test show for S=c1[nH]nc(-c2ccc(Cl)cc2)n1-c1ccc2c(c1)OCCO2 ?
// result FALSE

// query // query: CCCCCCOc1ccc(/C(C)=N/NC2=NCCN2)cc1[N+](=O)[O-]
// result FALSE

// query // query: COc1ccc(C2NCCc3c2[nH]c2ccccc32)cc1CN1CCc2cc(OC)c(OC)cc2C1C (stereo unspecified)
// result FALSE

// query // query: O=C1Nc2ccc(Br)cc2/C1=N/N=C/C1=C(N2CCOCC2)C(=C\c2ccccc2)/CC1
// result TRUE

// query // query: CSc1cccc(NC(=S)N(CCCN2CCCC2)Cc2cccn2Cc2ccc(Cl)cc2)c1
// result FALSE

// query // query: C#CCOCCOCCOCCNc1nc(N2CCN(C(=O)[C@H](Cc3cc4ccccc4[nH]3)n3cc([C@@H](N)C(C)CC)nn3)CC2)nc(N2CCN(C(=O)[C@H](Cc3cc4ccccc4[nH]3)n3cc([C@@H](N)CC(C)C)nn3)CC2)n1 (stereo partly specified)
// result FALSE

====

# EC50 per record follows
- system under test: Mitogen-activated protein kinase kinase kinase 3 (Homo sapiens)
- assay name: MEKK3 PB1-MEK5 interaction blockers – biochemical, bead multiplex flow cytometry, wildtype, dose response (AID 1896)
- cond: bead-based multiplex flow cytometry, MEK5-MEKK3 PB1 binding
Calls of active or inactive are those of the source. How the calls were made is not given here.

For orientation, consider the following solved cases.
molecule: O=C(Nc1ccc(Cl)cn1)c1ccc2c(Cl)c3c(nc2c1)CCC3
readout label: EC50
result: > 30 µM (inactive)

molecule: CCCCCCCCCCOC(=O)Cn1c(COc2cccc(OC)c2)[n+](C)c2ccccc21
readout label: EC50
result: > 30 µM (inactive)

molecule: O=[N+]([O-])c1ccc(/C=C/C2=NN(c3ccccc3)C(c3ccco3)C2)o1 (centres undefined)
readout label: EC50
result: > 30 µM (inactive)

molecule: Cc1cc2ccccc2n1CCNC(=O)c1cccs1
readout label: EC50
result: > 30 µM (inactive)

molecule: COC(=O)C1=C(C)N(Cc2ccccc2)C(=NCc2cccc(C(F)(F)F)c2)N[C@H]1c1cccc(F)c1
readout label: EC50
result: > 30 µM (inactive)

molecule: CCN1CCN(CCNC(=O)c2ccc(/C=C3/Sc4ccccc4N(Cc4cccc(C)c4)C3=O)cc2)CC1
readout label: EC50
result: > 30 µM (inactive)

molecule: c1ccc(CNc2nc(NCc3ccccc3)c3ccccc3n2)cc1
readout label: EC50
result: > 30 µM (inactive)

molecule: CCN(CC)CCOC(=O)c1ccc(N/C=C(/C#N)c2nc(-c3ccc(OC)c(OC)c3)cs2)cc1
readout label: EC50
result: 2.52 µM

// query Return EC50 measured with Mitogen-activated protein kinase kinase kinase 3 (Homo sapiens) given this molecule: COC(=O)c1c(C)oc(C)c1S(=O)(=O)N(Cc1ccccc1)C(C)C
// result > 30 µM (inactive)

// query // query: CCOc1ccc(C2=C/C(=C/c3cccnc3)C(=O)O2)cc1
// result > 30 µM (inactive)

// query // query: CN(C)c1ccc(/C=C/C=C2/SC(=S)N(c3ccccc3)C2=O)cc1
// result 1.21 µM

====

- system under test: Mitogen-activated protein kinase kinase kinase 3 (Homo sapiens)
- assay name: MEKK3 PB1-MEK5 interaction blockers – biochemical, bead multiplex flow cytometry, wildtype, dose response (AID 1896)
- cond: bead-based multiplex flow cytometry, MEK5-MEKK3 PB1 binding
Calls of active or inactive are those of the source. The rule behind the calls is not given here.
Your response should consist of one outcome taken from active, inactive

compound: C#CCOCCOCCOCCNc1nc(N2CCN(C(=O)C(Cc3ccc(O)cc3)n3cc(C(N)CC(C)C)nn3)CC2)nc(N2CCN(C(=O)C(Cc3cc4ccccc4[nH]3)n3cc(C(N)Cc4ccc(O)cc4)nn3)CC2)n1 (centres undefined)
label: inactive

// query What outcome does the record of this test show for CNC(=O)C(=O)Nc1c(C)cc(C)cc1C ?
// result inactive

// query // query: Cc1cc2cc(CNC(=O)NC3CCCCC3)ccc2[nH]1
// result active

// query // query: CCCCCCCCCCOC(=O)Cn1c(COc2ccc(C)cc2)[n+](C)c2ccccc21
// result inactive

// query // query: CCCCCCCCCCOC(=O)Cn1c(COc2ccccc2OC)[n+](C)c2ccccc21
// result inactive

====

- system under test: Mitogen-activated protein kinase kinase kinase 3 (Homo sapiens) (UniProt Q99759)
- assay name: MEKK3 PB1-MEK5 interaction blockers – biochemical, bead multiplex flow cytometry, wildtype, dose response (AID 1896)
- cond: bead-based multiplex flow cytometry, MEK5-MEKK3 PB1 binding
Activity calls are given as the source filed them. No rule for the calls is given here.
Your response should consist of one outcome taken from 1 (yes) (active), 0 (no) (inactive)

compound: CCOC(=O)c1c(C)n(-c2ccc(C)cc2)c2ccc(OCC(O)CN3CCN(C)CC3)cc12 (configuration not stated)
label: 0 (no)

// query What outcome does the record of this test show for CN(C)CCNc1ncnc2c1sc1nc(-c3ccccc3)c3c(c12)CCCC3 ?
// result 0 (no)

// query // query: C#CCOCCOCCOCCNc1nc(N2CCN(C(=O)[C@H]([C@@H](C)CC)n3cc([C@@H](N)CO)nn3)CC2)nc(N2CCN(C(=O)[C@H](Cc3cc4ccccc4[nH]3)n3cc([C@@H](N)Cc4ccc(O)cc4)nn3)CC2)n1
// result 1 (yes)

====

- system under test: Mitogen-activated protein kinase kinase kinase 3 (Homo sapiens) (UniProt Q99759)
- assay name: MEKK3 PB1-MEK5 interaction blockers – biochemical, bead multiplex flow cytometry, wildtype, dose response (AID 1896)
- cond: bead-based multiplex flow cytometry, MEK5-MEKK3 PB1 binding
Activity calls are given as the source filed them. No rule for the calls is given here.
Your response should consist of one outcome taken from active, inactive

Illustrative cases are given below, each with its answer.
molecule: NC(N)=N/N=C/c1ccc(OCc2ccc(Cl)cc2Cl)cc1
label: inactive
--
molecule: N#CC(C#N)=c1ccc2c(c1)N1C(c3ccccc3)=CC(c3ccccc3)C3CCCCC31N=2 (stereo not drawn)
label: active

// query What outcome does the record of this test show for C#CCOCCOCCOCCNc1nc(N2CCN(C(=O)[C@H](Cc3cc4ccccc4[nH]3)n3cc([C@@H](N)CC(C)C)nn3)CC2)nc(N2CCN(C(=O)[C@H](Cc3cc4ccccc4[nH]3)n3cc([C@@H](N)CC(C)C)nn3)CC2)n1 ?
// result inactive
